Reference for the values: patent US11358965B2

# System: UM10B cells
# PROTOCOL NOTES: Clonogenic IC50, UM10B
# Format: cell-based

[
  {
    "COMPOUND": "COc1ccc(NC(=O)CN2C(=O)C(c3ccc(C(C)(C)C)cc3)=NC2(C)C)cc1Cl [Compound 15]",
    "UNIT LABEL": "µM",
    "IC50": 17.2
  },
  {
    "COMPOUND": "Cc1ccc(C2=NC3(CCCCC3)N=C2SCC(=O)Nc2ccc(F)c(Cl)c2)cc1 [Compound 32]",
    "UNIT LABEL": "µM",
    "IC50": 4
  },
  {
    "COMPOUND": "COc1cc(NC(=O)CSC2=NC3(CCN(C)CC3)N=C2c2ccc(C)cc2)ccc1Cl [Compound 19]",
    "UNIT LABEL": "µM",
    "IC50": 2.6
  },
  {
    "COMPOUND": "Cc1ccc(C2=NC3(CCN(C)CC3)N=C2SCC(=O)Nc2ccc(F)c(F)c2)cc1 [Compound 25]",
    "UNIT LABEL": "µM",
    "IC50": 2.6
  },
  {
    "COMPOUND": "Cc1ccc(C2=NC3(CCN(C)CC3)N=C2SCC(=O)Nc2ccc3c(c2)OCCO3)cc1 [Compound 23]",
    "UNIT LABEL": "µM",
    "IC50": 5.3
  },
  {
    "COMPOUND": "CN1CCC2(CC1)N=C(SCC(=O)Nc1ccc(F)c(F)c1)C(c1ccc(Cl)cc1)=N2 [Compound 26]",
    "UNIT LABEL": "µM",
    "IC50": 1.1
  },
  {
    "COMPOUND": "Cc1ccc(C2=NC3(CCN(C)CC3)N=C2SCC(=O)Nc2ccc3c(c2)OCO3)cc1 [Compound 24]",
    "UNIT LABEL": "µM",
    "IC50": 4.3
  },
  {
    "COMPOUND": "COc1ccc(NC(=O)CSC2=NC3(CCN(C)CC3)N=C2c2ccc(C(C)(C)C)cc2)cc1Cl [Compound 22]",
    "UNIT LABEL": "µM",
    "IC50": 0.3
  }
]

---

# System: UM10B cells
# PROTOCOL NOTES: Clonogenic IC50, UM10B
# Format: cell-based

[
  {
    "ITEM SMILES": "COc1ccc(NC(=O)CSC2=NC3(CCN(C)CC3)N=C2c2ccc(F)cc2)cc1Cl",
    "IC50 / µM": 4.3
  },
  {
    "ITEM SMILES": "COc1ccc(C2=NC3(CCN(C)CC3)N=C2SCC(=O)Nc2ccc(OC)c(Cl)c2)cc1",
    "IC50 / µM": 4
  },
  {
    "ITEM SMILES": "CN1CCC2(CC1)N=C(SCC(=O)Nc1ccc(F)c(F)c1)C(c1ccc(Br)cc1)=N2",
    "IC50 / µM": 0.7
  },
  {
    "ITEM SMILES": "CC1(C)N=C(c2ccc(F)cc2)C(=O)N1CC(=O)Nc1ccc(F)c(Cl)c1",
    "IC50 / µM": 6.9
  }
]

---

# Test system: UM1 cells
# PROTOCOL NOTES: Clonogenic IC50, UM1
# Assay type: cell-based
Where a name gives a salt, the structure may show the parent alone.
Here, each record is paired with measured IC50 data.
VALUE TYPE: IC50 (µM)

[
  {
    "COMPOUND": "COc1ccc(NC(=O)CSC2=NC3(CCN(C)CC3)N=C2c2ccc(Br)cc2)cn1 [Compound 8A]",
    "VALUE TYPE": "IC50",
    "OBSERVED RESULT": 1
  },
  {
    "COMPOUND": "CN1CCC2(CC1)N=C(SCC(=O)NC1CCCC1)C(c1ccc(Br)cc1)=N2 [Compound 8F]",
    "VALUE TYPE": "IC50",
    "OBSERVED RESULT": 1
  },
  {
    "COMPOUND": "COc1ccc(C2=NC3(CCNCC3)N(CC(=O)Nc3ccc(OC)c(Cl)c3)C2=O)cc1 [Compound 4, hydrochloride]",
    "VALUE TYPE": "IC50",
    "OBSERVED RESULT": 1
  }
]
